Test: Gelling of water-immiscible cosmetic liquids in 96 well glass micro-titre plate
Type: physicochemical
Design: key: gel; g4: gel after overnight (18 hrs) storage at 4° C.; g22: gel after overnight (18 hrs) storage at 22° C.; sg: soft gel; sg22: soft gel after overnight (18 hrs) storage at 22° C.; solution; *: the test at 4° C. was not carried out
Conditions: 5% cellobiose ester in ISA; 150° C. 2.5 hours, cooled to ambient
Method: In this Example, various samples of esterified cellobiose prepared as in Example 1 or 2 above, were used to gel water-immiscible cosmetic liquids, in accordance with the procedure given below, in which a large number of gels can be prepared simultaneously. The samples were tested in a 96 well (8×12 rows) glass micro-titre plate. […] The contents of the wells were assessed at the end of the cooling period, by visual inspection and by poking the contents of each well with a micro-spatula. […]

| molecule | gelling of ISA |
| --- | --- |
| CCCCCCCCCC(=O)OCC1OC(OC2C(COC(=O)CCCCCCCCC)OC(OC(=O)c3ccc4ccccc4c3)C(OC(=O)CCCCCCCCC)C2OC(=O)CCCCCCCCC)C(OC(=O)CCCCCCCCC)C(OC(=O)CCCCCCCCC)C1OC(=O)CCCCCCCCC (mixture of isomers) | gel |
| CCCCCCCCC(=O)OCC1OC(OC2C(COC(=O)CCCCCCCC)OC(OC(=O)CCCCC)C(OC(=O)CCCCCCCC)C2OC(=O)CCCCCCCC)C(OC(=O)CCCCCCCC)C(OC(=O)CCCCCCCC)C1OC(=O)CCCCCCCC (mixture of isomers) | sg22 |

###

Test: Gelling of water-immiscible cosmetic liquids in 96 well glass micro-titre plate
Type: physicochemical
Parameters: key: gel; g4: gel after overnight (18 hrs) storage at 4° C.; g22: gel after overnight (18 hrs) storage at 22° C.; sg: soft gel; sg22: soft gel after overnight (18 hrs) storage at 22° C.; solution; *: the test at 4° C. was not carried out
Conditions: 5% cellobiose ester in ISA; 150° C. 2.5 hours, cooled to ambient

| molecule | gelling of ISA |
| --- | --- |
| CCCCCCCCC(=O)OCC1OC(OC2C(COC(=O)CCCCCCCC)OC(OC(=O)C3CCCCC3)C(OC(=O)CCCCCCCC)C2OC(=O)CCCCCCCC)C(OC(=O)CCCCCCCC)C(OC(=O)CCCCCCCC)C1OC(=O)CCCCCCCC (mixture of isomers) | g22 |
| CCCCCCCCC(=O)OCC1OC(OC2C(COC(=O)CCCCCCCC)OC(OC(=O)CCCCCC)C(OC(=O)CCCCCCCC)C2OC(=O)CCCCCCCC)C(OC(=O)CCCCCCCC)C(OC(=O)CCCCCCCC)C1OC(=O)CCCCCCCC (mixture of isomers) | sg22 |

###

Experiment: Visual assessment score (clarity of gel in 1 cm cuvette)
Assay type: physicochemical
Details: 60:40 hydrogenated polydecene:DC245 gelled with 9% REF2 and 1% of the specified cellobiose ester
Text: A gel contained within a 1 cm thick cuvette was placed directly on to a sheet of white paper on which 21 sets of figures where printed in black. The size and thickness of the figures varied systematically and were numbered from −12 (the largest, thickest set) through 0 to 8 (the smallest thinnest set) The score given to each gel was the highest numbered set which could be read clearly through the gel, the higher the number, the higher the clarity.

| molecule | Clarity Visual (appearance) |
| --- | --- |
| CCCCCCCCC(=O)OCC1OC(OC2C(COC(=O)CCCCCCCC)OC(OC(C)=O)C(OC(=O)CCCCCCCC)C2OC(=O)CCCCCCCC)C(OC(=O)CCCCCCCC)C(OC(=O)CCCCCCCC)C1OC(=O)CCCCCCCC (mixture of isomers) [Ex 1.5] | transparent |
| CCCCCCCCC(=O)OCC1OC(OC2C(COC(=O)CCCCCCCC)OC(OC(=O)c3ccc4ccccc4c3)C(OC(=O)CCCCCCCC)C2OC(=O)CCCCCCCC)C(OC(=O)CCCCCCCC)C(OC(=O)CCCCCCCC)C1OC(=O)CCCCCCCC (mixture of isomers) [Ex 1.3] | transparent |
